# Target System: Diphosphomevalonate decarboxylase (Streptococcus pneumoniae serotype 2 (strain D39 / NCTC 7466))
# Experiment: diphosphomevalonate decarboxylase inhibition dose curves – biochemical, PK/LDH-coupled NADH fluorescence, hexokinase coupling counter-screen, dose response (AID 550)
For each entry below, report its IC50 value.

// below: answered compounds
>>> df
                                   compound  reported_result
0  CC(C)C(OC(=O)CN1C(=O)COc2ccccc21)C(=O)NC1CCCC1 (stereo unspecified)       > 10000 µM
1  O=C(NCC1CCCO1)c1coc2nc3ccccc3nc12 (stereo unspecified)          30.6 µM
2  COc1ccccc1NC(=O)CSc1nc(O)cc(=O)n1-c1ccccc1OC       > 10000 µM
3           COC(=O)Cc1sc(=O)[nH]c1Nc1ccccc1       > 10000 µM
4     O=C(Nc1ccc(-c2nc3ncccc3o2)cc1)c1ccco1          34.9 µM

Please give IC50, item by item, for the list that follows.
1. Cc1ccc(OCCn2c(C)c(C=Nn3cnnc3)c3ccccc32)cc1
2. Cn1cc(O)nc1NC(=O)C12CC3CC(CC(C3)C1)C2
3. O=C(CSc1nnnn1Cc1ccccc1)NCCc1ccccc1
4. COc1ccccc1NC(=O)C1=C(C)N=C2CCCC(=O)C2C1c1ccc2c(c1)OCO2 (stereo unspecified)
5. N#Cc1c(S)nc2c(c1-c1cccnc1)CCCC2
6. Cc1cc(N2CCN(C(=O)c3ccco3)CC2)n2nc(-c3cccc(Cl)c3)cc2n1

Result block:
1. > 10000 µM
2. > 10000 µM
3. > 10000 µM
4. 76.3 µM
5. 20.1 µM
6. > 10000 µM

----------
For each entry below, report its pIC50 value.
# Target System: Diphosphomevalonate decarboxylase (Streptococcus pneumoniae serotype 2 (strain D39 / NCTC 7466), UniProt A0A0H2ZN59)
# Sequence (A0A0H2ZN59 whole entry): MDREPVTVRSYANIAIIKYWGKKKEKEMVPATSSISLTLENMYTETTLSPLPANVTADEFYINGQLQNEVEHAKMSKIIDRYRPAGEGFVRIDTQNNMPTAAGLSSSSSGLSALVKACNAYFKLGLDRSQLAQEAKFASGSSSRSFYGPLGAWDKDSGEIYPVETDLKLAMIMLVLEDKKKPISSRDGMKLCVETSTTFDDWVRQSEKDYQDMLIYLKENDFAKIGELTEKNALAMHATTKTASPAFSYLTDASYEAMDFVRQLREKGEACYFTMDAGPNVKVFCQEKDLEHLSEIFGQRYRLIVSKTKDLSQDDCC
# Experiment: diphosphomevalonate decarboxylase inhibition dose curves – biochemical, PK/LDH-coupled NADH fluorescence, hexokinase coupling counter-screen, dose response (AID 550)
# Condition Summary: inactive by the depositor's call
One number for each entry, as −log10 of the molar value.

// below: answered compounds
                                   compound  quantity  reported_result
0  CCN(CC)c1ccc(C=Nn2c(=S)[nH]nc(C)c2=O)cc1     pIC50             4.70
1  Cc1cc(C)c2c(=O)n(CC(=O)NCCCN3CCN(c4ccccc4F)CC3)sc2n1     pIC50             4.44
2      Cc1csc2ncc(C(=O)Nc3ccccc3Cl)c(=O)n12     pIC50             4.32

Please give pIC50, item by item, for the list that follows.
1. CCC(=O)Oc1ccc2c(C)cc(=O)oc2c1C
2. O=c1c2ccccc2[se]n1-c1ccccc1 [2-Phenyl-benzo[d]isoselenazol-3-one]
3. O=C(O)c1cccn2c(=O)c3ccccc3nc12

Result block:
1: 4.52; 2: 6.29; 3: 4.18

Please give pIC50, item by item, for the list that follows.
1. Nc1cccc2c1C(=O)N(c1ccccc1)C2=O
2. Nc1cc(C(=O)O)ccc1Nc1ccccc1
3. Clc1ccc2c(c1)[C@H]1OCC[C@H]1[C@@H](c1ccco1)N2

Result block:
1. 4.22
2. 3.92
3. 4.61

Please give pIC50, item by item, for the list that follows.
1. Clc1cccc(-c2ccc(C=Nn3cnnc3)o2)c1
2. COC(=O)Sc1nnc(-c2ccc(Br)cc2)o1
3. C/C(C=Nn1cnnc1)=C\c1ccco1

Result block:
1: 4.00; 2: 4.79; 3: 3.90

----------
For each entry below, report its log10(IC50) value.
# Target System: Diphosphomevalonate decarboxylase (Streptococcus pneumoniae serotype 2 (strain D39 / NCTC 7466), UniProt A0A0H2ZN59)
# Experiment: diphosphomevalonate decarboxylase inhibition dose curves – biochemical, PK/LDH-coupled NADH fluorescence, hexokinase coupling counter-screen, dose response (AID 550)
Hi team, quick reminder: these entries are log10 of IC50 (µM).

// below: answered molecules
>>> print(df.to_string())
                                   molecule     quantity  reported_result
0     COc1ccc(-c2nn3c(-c4ccco4)nnc3s2)cc1OC  log10(IC50)             2.37
1  O=C(NC1CCCCC1)N(CCN1CCCC1)Cc1cc2cc3c(cc2[nH]c1=O)OCCO3  log10(IC50)             1.18
2  COC(=O)c1[nH]c2ccc(Cl)cc2c1NC(=O)CCN1CCOCC1  log10(IC50)             2.17

Please give log10(IC50), item by item, for the list that follows.
1. COc1ccc(-n2c(NC(=O)c3ccco3)c(C#N)c3nc4ccccc4nc32)cc1
2. Cc1cc(C)c2c(n1)nn1c(N3CCN(c4ccccc4)CC3)cc(C)nc21
3. CC1=C(C(=O)OCC2CCCO2)C(c2ccncc2)C2C(=O)CCCC2=N1 (stereo unspecified)
4. Cc1cc(=O)oc2ccc(OCC(=O)N3CCC(C)CC3)cc12
5. O=C(CN1CCCC1)N1CCCc2c1c(=O)oc1ccc(OCc3ccccc3)cc21
6. CCOC(=O)N1CCN(C(=O)c2cn(CC)c3cc(N4CCN(C)CC4)c(F)cc3c2=O)CC1

Result block:
1.23
1.10
1.43
2.33
1.39
1.70

Please give log10(IC50), item by item, for the list that follows.
1. COc1cc2c(cc1OC)C(CC(=O)N1CCOCC1)=NC(C)(C)C2
2. Nc1c(S(=O)(=O)c2cccs2)c2nc3ccccc3nc2n1Cc1ccc2c(c1)OCO2

Result block:
[1.59, 1.50]

Please give log10(IC50), item by item, for the list that follows.
1. COc1ccc(-c2cc(C(F)(F)F)nc(SCCC(=O)N3CCN4CCCC4C3)n2)cc1 (stereo unspecified)
2. CCOC(=O)c1cc2c(cn1)[nH]c1ccccc12

Result block:
[2.58, 1.69]

----------
# Target System: Diphosphomevalonate decarboxylase (Streptococcus pneumoniae serotype 2 (strain D39 / NCTC 7466), UniProt A0A0H2ZN59)
# Sequence (A0A0H2ZN59 whole entry): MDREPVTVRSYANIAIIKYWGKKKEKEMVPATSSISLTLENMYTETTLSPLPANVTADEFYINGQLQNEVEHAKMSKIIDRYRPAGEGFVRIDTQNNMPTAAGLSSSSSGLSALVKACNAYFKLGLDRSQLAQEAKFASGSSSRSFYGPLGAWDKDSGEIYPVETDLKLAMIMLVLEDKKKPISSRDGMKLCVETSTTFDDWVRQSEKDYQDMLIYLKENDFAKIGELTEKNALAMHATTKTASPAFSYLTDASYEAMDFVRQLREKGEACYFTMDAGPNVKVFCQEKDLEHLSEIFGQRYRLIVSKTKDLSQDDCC
# Experiment: diphosphomevalonate decarboxylase inhibition dose curves – biochemical, PK/LDH-coupled NADH fluorescence, hexokinase coupling counter-screen, dose response (AID 550)
For each entry below, report its IC50 value.
One number for each entry, in µM.

Please give IC50, item by item, for the list that follows.
1. CN(c1nc2ccccc2n2c(-c3ccco3)nnc12)S(=O)(=O)c1ccccc1 [MLS000083900]
2. CCN(CC)S(=O)(=O)c1ccc(NC(=O)c2cccc3c2C(=O)N(CCOC)C3)cc1 [MLS000045293]
3. COC(=O)c1c(NC(=O)c2ccoc2C)sc2c1CCC2

Result block:
[35.8, 50.5, 98.9]

----------
# Target System: Diphosphomevalonate decarboxylase (Streptococcus pneumoniae serotype 2 (strain D39 / NCTC 7466), UniProt A0A0H2ZN59)
# Sequence (A0A0H2ZN59 whole entry): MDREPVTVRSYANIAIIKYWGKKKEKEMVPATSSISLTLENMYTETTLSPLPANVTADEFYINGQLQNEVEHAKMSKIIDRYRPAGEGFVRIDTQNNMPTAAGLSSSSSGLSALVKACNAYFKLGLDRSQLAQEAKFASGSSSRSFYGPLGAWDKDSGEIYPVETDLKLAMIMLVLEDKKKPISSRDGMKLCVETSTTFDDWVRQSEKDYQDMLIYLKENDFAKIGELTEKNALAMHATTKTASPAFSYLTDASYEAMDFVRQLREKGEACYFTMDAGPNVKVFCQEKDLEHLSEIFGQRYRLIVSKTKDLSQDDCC
# Experiment: diphosphomevalonate decarboxylase inhibition dose curves – biochemical, PK/LDH-coupled NADH fluorescence, hexokinase coupling counter-screen, dose response (AID 550)
For each entry below, report its IC50 value.
Answers are plain numbers, in µM.

In [3]: df
Out[3]:
                                   compound  quantity  reported_result
0  CCn1cc(C(=O)NCc2ccco2)c(=O)c2cc(F)c(N3CCN(C(=O)c4ccco4)CC3)cc21      IC50             16.7
1  O=C(Nc1ccc2nc(-c3cccs3)c(-c3cccs3)nc2c1)N1CCOCC1      IC50             25.8
2  CC(=O)NCCn1c(SCc2cc(=O)n3cc(Cl)ccc3n2)nc2ccccc2c1=O      IC50             70.6
3          CCOc1ccc(-c2nnc(-c3ccncc3)o2)cc1      IC50             52.9

Please give IC50, item by item, for the list that follows.
1. COCCn1c(C)cc(C(=O)COc2nc3ccccc3nc2C)c1C
2. Cc1ccc(S(=O)(=O)c2cc3c(=O)n4ccccc4nc3n(CC3CCCO3)c2=N)cc1C (stereo not given)

Result block:
3000
43.6
